All figures here come from patent EP3730147A1.

tgt: rat liver glucose-6-phosphate dehydrogenase (DG-6-P) (Rattus norvegicus, UniProt P05370)
Construct: an additional enzyme purification procedure was performed; from tissue; host or cells: rat liver (5.6-fold purified enzyme preparation)
Sequence (P05370 whole entry): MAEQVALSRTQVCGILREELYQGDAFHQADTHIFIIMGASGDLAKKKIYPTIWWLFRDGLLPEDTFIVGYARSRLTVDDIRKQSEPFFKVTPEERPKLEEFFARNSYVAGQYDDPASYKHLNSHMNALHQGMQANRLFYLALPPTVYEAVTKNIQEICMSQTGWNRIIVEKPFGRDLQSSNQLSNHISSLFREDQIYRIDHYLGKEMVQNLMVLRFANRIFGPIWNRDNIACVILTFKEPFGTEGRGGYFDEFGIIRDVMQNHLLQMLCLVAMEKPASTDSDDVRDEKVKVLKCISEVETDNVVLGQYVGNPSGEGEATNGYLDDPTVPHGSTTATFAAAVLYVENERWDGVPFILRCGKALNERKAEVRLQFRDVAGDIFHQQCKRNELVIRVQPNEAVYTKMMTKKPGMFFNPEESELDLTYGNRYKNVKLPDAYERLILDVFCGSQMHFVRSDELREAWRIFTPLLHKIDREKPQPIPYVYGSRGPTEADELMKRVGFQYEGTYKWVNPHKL
assayExplanation: Effect on DG-6-P activity in 5.6-fold purified rat liver enzyme
Format: biochemical
studyConditions: 25 µM, read-out: % of control (DG-6-P activity)
Source text: Rat liver glycogen phosphorylase, rat liver and skeletal muscle hexokinase, rat liver glucose-6-phosphate dehydrogenase (DG-6-P), rat liver and skeletal muscle phosphofructokinase were selected as potential targets for in vitro testing of the hypoglycemic activity of lupane triterpenoids. Surprising results were obtained by examining the effect of lupane triterpenoids on glucose-6-phosphate activity. […] In both cases, the observed effects were dose-dependent. […] Table 1. […]

>  <compound>
C=C(C)[C@@H]1CC[C@]2(CO)CC[C@]3(C)[C@H](CC[C@@H]4[C@@]5(C)CC[C@H](O)C(C)(C)[C@@H]5CC[C@]43C)[C@@H]12 [Betulin]

>  <uom>
%

>  <remaining activity at 25 µM>
47.6

$$$$
>  <compound>
C=C(C)[C@@H]1CC[C@]2(C(=O)O)CC[C@]3(C)[C@H](CC[C@@H]4[C@@]5(C)CCC(=O)C(C)(C)[C@@H]5CC[C@]43C)[C@@H]12 [Betulonic acid]

>  <uom>
%

>  <remaining activity at 25 µM>
51.9

$$$$
>  <compound>
C=C(C)[C@@H]1CC[C@]2(C)CC[C@]3(C)[C@H](CC[C@@H]4[C@@]5(C)CC[C@H](O)C(C)(C)[C@@H]5CC[C@]43C)[C@@H]12 [Lupeol]

>  <uom>
%

>  <remaining activity at 25 µM>
53.6

$$$$
>  <compound>
C=C(C)[C@@H]1CC[C@]2(COC(C)=O)CC[C@]3(C)[C@H](CC[C@@H]4[C@@]5(C)CC[C@H](OC(C)=O)C(C)(C)[C@@H]5CC[C@]43C)[C@@H]12 [3,28-betulin diacetate]

>  <uom>
%

>  <remaining activity at 25 µM>
52.8

$$$$
>  <compound>
C=C(C)[C@@H]1CC[C@]2(C(=O)O)CC[C@]3(C)[C@H](CC[C@@H]4[C@@]5(C)CC[C@H](O)C(C)(C)[C@@H]5CC[C@]43C)[C@@H]12 [Betulinic acid]

>  <uom>
%

>  <remaining activity at 25 µM>
44.2

$$$$
>  <compound>
CC1(C)CC[C@]23CC[C@]4(C)[C@H](CC[C@@H]5[C@@]6(C)CC[C@H](O)C(C)(C)[C@@H]6CC[C@]54C)[C@H]2[C@H]1OC3 [Allobetulin]

>  <uom>
%

>  <remaining activity at 25 µM>
49

$$$$

---

tgt: rat liver glucose-6-phosphate dehydrogenase (DG-6-P) (Rattus norvegicus)
Construct: an additional enzyme purification procedure was performed; from tissue; host or cells: rat liver (5.6-fold purified enzyme preparation)
assayExplanation: Effect on DG-6-P activity in 5.6-fold purified rat liver enzyme
Type: biochemical
studyConditions: 5 µM

>  <molecule>
C=C(C)[C@@H]1CC[C@]2(CO)CC[C@]3(C)[C@H](CC[C@@H]4[C@@]5(C)CC[C@H](O)C(C)(C)[C@@H]5CC[C@]43C)[C@@H]12 [Betulin]

>  <tgt>
rat liver glucose-6-phosphate dehydrogenase (DG-6-P) (Rattus norvegicus)

>  <E (DG-6-P activity)>
0,149±0,004

$$$$
>  <molecule>
C=C(C)[C@@H]1CC[C@]2(C)CC[C@]3(C)[C@H](CC[C@@H]4[C@@]5(C)CC[C@H](O)C(C)(C)[C@@H]5CC[C@]43C)[C@@H]12 [Lupeol]

>  <tgt>
rat liver glucose-6-phosphate dehydrogenase (DG-6-P) (Rattus norvegicus)

>  <E (DG-6-P activity)>
0,143±0,005

$$$$
>  <molecule>
C=C(C)[C@@H]1CC[C@]2(COC(C)=O)CC[C@]3(C)[C@H](CC[C@@H]4[C@@]5(C)CC[C@H](OC(C)=O)C(C)(C)[C@@H]5CC[C@]43C)[C@@H]12 [3,28-betulin diacetate]

>  <tgt>
rat liver glucose-6-phosphate dehydrogenase (DG-6-P) (Rattus norvegicus)

>  <E (DG-6-P activity)>
0,158±0,002

$$$$
>  <molecule>
CC1(C)CC[C@]23CC[C@]4(C)[C@H](CC[C@@H]5[C@@]6(C)CC[C@H](O)C(C)(C)[C@@H]6CC[C@]54C)[C@H]2[C@H]1OC3 [Allobetulin]

>  <tgt>
rat liver glucose-6-phosphate dehydrogenase (DG-6-P) (Rattus norvegicus)

>  <E (DG-6-P activity)>
0,151±0,004

$$$$
>  <molecule>
C=C(C)[C@@H]1CC[C@]2(C(=O)O)CC[C@]3(C)[C@H](CC[C@@H]4[C@@]5(C)CCC(=O)C(C)(C)[C@@H]5CC[C@]43C)[C@@H]12 [Betulonic acid]

>  <tgt>
rat liver glucose-6-phosphate dehydrogenase (DG-6-P) (Rattus norvegicus)

>  <E (DG-6-P activity)>
0,148±0,003

$$$$

---

tgt: rat liver glucose-6-phosphate dehydrogenase (DG-6-P) (Rattus norvegicus)
Construct: an additional enzyme purification procedure was performed; from tissue; host or cells: rat liver (5.6-fold purified enzyme preparation)
assayExplanation: Effect on DG-6-P activity in 5.6-fold purified rat liver enzyme
Type: biochemical
studyConditions: 5 µM, read-out: % of control (DG-6-P activity)
As shown below, each of these compounds has a reported remaining activity at 5 µM value.
endpointLabel: remaining activity at 5 µM (%)

>  <compound>
C=C(C)[C@@H]1CC[C@]2(COC(C)=O)CC[C@]3(C)[C@H](CC[C@@H]4[C@@]5(C)CC[C@H](OC(C)=O)C(C)(C)[C@@H]5CC[C@]43C)[C@@H]12 [3,28-betulin diacetate]

>  <endpointLabel>
remaining activity at 5 µM

>  <val>
75

$$$$
>  <compound>
C=C(C)[C@@H]1CC[C@]2(C(=O)O)CC[C@]3(C)[C@H](CC[C@@H]4[C@@]5(C)CC[C@H](O)C(C)(C)[C@@H]5CC[C@]43C)[C@@H]12

>  <endpointLabel>
remaining activity at 5 µM

>  <val>
68.8

$$$$
>  <compound>
C=C(C)[C@@H]1CC[C@]2(CO)CC[C@]3(C)[C@H](CC[C@@H]4[C@@]5(C)CC[C@H](O)C(C)(C)[C@@H]5CC[C@]43C)[C@@H]12

>  <endpointLabel>
remaining activity at 5 µM

>  <val>
71

$$$$
>  <compound>
C=C(C)[C@@H]1CC[C@]2(C(=O)O)CC[C@]3(C)[C@H](CC[C@@H]4[C@@]5(C)CCC(=O)C(C)(C)[C@@H]5CC[C@]43C)[C@@H]12

>  <endpointLabel>
remaining activity at 5 µM

>  <val>
70.3

$$$$
>  <compound>
C=C(C)[C@@H]1CC[C@]2(C)CC[C@]3(C)[C@H](CC[C@@H]4[C@@]5(C)CC[C@H](O)C(C)(C)[C@@H]5CC[C@]43C)[C@@H]12

>  <endpointLabel>
remaining activity at 5 µM

>  <val>
68

$$$$
>  <compound>
CC1(C)CC[C@]23CC[C@]4(C)[C@H](CC[C@@H]5[C@@]6(C)CC[C@H](O)C(C)(C)[C@@H]6CC[C@]54C)[C@H]2[C@H]1OC3

>  <endpointLabel>
remaining activity at 5 µM

>  <val>
72

$$$$
